B1: CDC14A (parent)
chain: GPHPKSKIENGYPLHAPEAYFPYF

Variants of: B1
Test protocol: protein stability index of a GFP-peptide fusion (GPS, HEK-293T) (PSI 1-6); higher = more stable;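 also: lentivirally expressed fusions sorted by FACS into six bins by GFP to DsRed ratio, PSI derived from sequencing read proportions per bin multiplied by bin number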
Applied conditions: c terminus: a fixed tail appended
Readout type: protein stability index
// no unit, no text: just the number

Given the variant GPDPKSKIENGYPLHAPEAYFPYF [H3D] , what is its reported protein stability index?
2.01

Same thing, different variant: GPHPKSKIENGYPLHAPETYFPYF [A19T]
2.39

Same thing, different variant: GPHPKSKIENGSPLHAPEAYFPYF [Y12S]
2.73

Same thing, different variant: GPHHKSKIENGYPLHAPEAYFPYF [P4H]
2.24

Same thing, different variant: GYHPKSKIENGYPLHAPEAYFPYF [P2Y]
1.85

Same thing, different variant: GPHPKSKIENGYPLHAPEAYFNYF [P22N]
1.99

Same thing, different variant: GPHPKSKIENGYPLHWPEAYFPYF [A16W]
1.99

Same thing, different variant: GPHPKSPIENGYPLHAPEAYFPYF [K7P]
2.72

Same thing, different variant: GPHPKSKIENGYPLKAPEAYFPYF [H15K]
2.7

Same thing, different variant: GPHPKSKIENGYILHAPEAYFPYF [P13I]
1.43

Same thing, different variant: GPHPKSKIENGYKLHAPEAYFPYF [P13K]
1.88

Same thing, different variant: GPHPKSKIENGGPLHAPEAYFPYF [Y12G]
2.67

Same thing, different variant: GPHPKSKIENGYALHAPEAYFPYF [P13A]
2.57

Same thing, different variant: GPHPMSKIENGYPLHAPEAYFPYF [K5M]
1.87

Same thing, different variant: GPHPKSKIENGYPLHAPEAYFPQF [Y23Q]
3.24

Same thing, different variant: GPHPKSKIENGYPLHAPEAYFPVF [Y23V]
2.07

Same thing, different variant: GPHPKSKIENGYPLHAPEAYFPYD [F24D]
3.37

Same thing, different variant: GPHPKSKIENGYPLHAPEAYFPYK [F24K]
3.4

Same thing, different variant: GPHPKSKIENGDPLHAPEAYFPYF [Y12D]
3.24

Same thing, different variant: GPHPKSKIKNGYPLHAPEAYFPYF [E9K]
1.44

Same thing, different variant: GPHPKSKIENGYPQHAPEAYFPYF [L14Q]
3.06

Same thing, different variant: CPHPKSKIENGYPLHAPEAYFPYF [G1C]
2.1

Same thing, different variant: GPHPKSKRENGYPLHAPEAYFPYF [I8R]
2.75

Same thing, different variant: GPHPKSKIEMGYPLHAPEAYFPYF [N10M]
2.31

Same thing, different variant: GPHPKSKIENGLPLHAPEAYFPYF [Y12L]
2.46

Same thing, different variant: GPHPKSKIENGYPLHAPEANFPYF [Y20N]
2.63

Same thing, different variant: GPHSKSKIENGYPLHAPEAYFPYF [P4S]
1.86

Same thing, different variant: GPHPKSKIENGYPLHAPAAYFPYF [E18A]
2.61

Same thing, different variant: GPHPKSKIENGYPLHAPEACFPYF [Y20C]
2.19

Same thing, different variant: RPHPKSKIENGYPLHAPEAYFPYF [G1R]
1.88

Same thing, different variant: GPHPKSKIEYGYPLHAPEAYFPYF [N10Y]
1.79

Same thing, different variant: GPHPKSKIENGYPLHAPENYFPYF [A19N]
2.71

Same thing, different variant: GPHMKSKIENGYPLHAPEAYFPYF [P4M]
2.33

Same thing, different variant: GPHPKSKTENGYPLHAPEAYFPYF [I8T]
2.48

Same thing, different variant: QPHPKSKIENGYPLHAPEAYFPYF [G1Q]
2.03

Same thing, different variant: GPHPKSKIENGYPLHAPEAMFPYF [Y20M]
2.71

Same thing, different variant: GPHPKSKIENGYPLHAPEAYIPYF [F21I]
2.17

Same thing, different variant: GPHPKSKIENGYPLHAPEAYFRYF [P22R]
2.5

Same thing, different variant: GPHPKSKIENGYPLHAYEAYFPYF [P17Y]
1.79

Same thing, different variant: GPHPKSKIENGYPLHAPEAYFPYY [F24Y]
2.6

Same thing, different variant: GPHPKSKIENGYPLHAPEAYFPAF [Y23A]
2.93

Same thing, different variant: GPHPKSKIENRYPLHAPEAYFPYF [G11R]
2.5

Same thing, different variant: GPHPKSKFENGYPLHAPEAYFPYF [I8F]
2.23

Same thing, different variant: GPHPKSKIENGYPLHAPEHYFPYF [A19H]
2.22

Same thing, different variant: GPHPKSKIENGYPLHAPEFYFPYF [A19F]
2.39

Same thing, different variant: GKHPKSKIENGYPLHAPEAYFPYF [P2K]
1.94

Same thing, different variant: GPHPKSKIENSYPLHAPEAYFPYF [G11S]
2.09

Same thing, different variant: KPHPKSKIENGYPLHAPEAYFPYF [G1K]
1.57

Same thing, different variant: GPHPKSKIENGYPLHAGEAYFPYF [P17G]
2.48

Same thing, different variant: GPHPKEKIENGYPLHAPEAYFPYF [S6E]
2.3

Same thing, different variant: GPHPKSRIENGYPLHAPEAYFPYF [K7R]
2.43

Same thing, different variant: GPHPKSKIQNGYPLHAPEAYFPYF [E9Q]
2.02

Same thing, different variant: FPHPKSKIENGYPLHAPEAYFPYF [G1F]
2.01

Same thing, different variant: GPHPKSKIENGYPLHAPELYFPYF [A19L]
1.98

Same thing, different variant: GPHFKSKIENGYPLHAPEAYFPYF [P4F]
2.24

Same thing, different variant: GPHPKSKIENGYPLHAPEAVFPYF [Y20V]
2.55

Same thing, different variant: GPHAKSKIENGYPLHAPEAYFPYF [P4A]
2.52

Same thing, different variant: GPHPKSKIENGYPLHAPEAYFPYL [F24L]
2.51

Same thing, different variant: GPHPKSKIENGYFLHAPEAYFPYF [P13F]
1.92

Same thing, different variant: GPHPKSKIENGYPLHAPEADFPYF [Y20D]
3.29

Same thing, different variant: GPHPKSKIENGYPLHAPEAYMPYF [F21M]
2.69

Same thing, different variant: GPHPKSKIENGVPLHAPEAYFPYF [Y12V]
2.19

Same thing, different variant: GPHPKSKIENGYPLHAPRAYFPYF [E18R]
2.69

Same thing, different variant: GPHPKSKIEQGYPLHAPEAYFPYF [N10Q]
2.99

Same thing, different variant: VPHPKSKIENGYPLHAPEAYFPYF [G1V]
1.89

Same thing, different variant: GPHPKSKIENGYPLHAPEAYSPYF [F21S]
2.96

Same thing, different variant: GPHPKSKIENGYPLHAPHAYFPYF [E18H]
2.24

Same thing, different variant: GPHPKSKIENMYPLHAPEAYFPYF [G11M]
2.09

Same thing, different variant: GPHPKSKIFNGYPLHAPEAYFPYF [E9F]
1.77

Same thing, different variant: GPHPKSKIENPYPLHAPEAYFPYF [G11P]
3.76

Same thing, different variant: APHPKSKIENGYPLHAPEAYFPYF [G1A]
1.82

Same thing, different variant: GPVPKSKIENGYPLHAPEAYFPYF [H3V]
2.41

Same thing, different variant: GPHPKSKIENGMPLHAPEAYFPYF [Y12M]
2.74

Same thing, different variant: GMHPKSKIENGYPLHAPEAYFPYF [P2M]
2.13

Same thing, different variant: GPHPKSKIENDYPLHAPEAYFPYF [G11D]
2.85

Same thing, different variant: GPHPKSKIENGYELHAPEAYFPYF [P13E]
2.94

Same thing, different variant: GPHPKSKIENGYPLHAPEAHFPYF [Y20H]
2.71

Same thing, different variant: GPHPKSKIENGYPLHAPMAYFPYF [E18M]
1.45

Same thing, different variant: GPHPKSKIENGYPEHAPEAYFPYF [L14E]
3.65

Same thing, different variant: GPHPKDKIENGYPLHAPEAYFPYF [S6D]
2.59

Same thing, different variant: GPHPKSKIENGYPLHAAEAYFPYF [P17A]
2.21

Same thing, different variant: GPHPKSKIENGYPLHAPEAYFPYC [F24C]
2.66

Same thing, different variant: GPHQKSKIENGYPLHAPEAYFPYF [P4Q]
2.23

Same thing, different variant: GPHPKSKIENGYPLHRPEAYFPYF [A16R]
2.35

Same thing, different variant: GPHPKSKIENGYPLHAPEAYFDYF [P22D]
2.73

Same thing, different variant: GPHPKSSIENGYPLHAPEAYFPYF [K7S]
2.31

Same thing, different variant: GPHPKMKIENGYPLHAPEAYFPYF [S6M]
1.6

Same thing, different variant: GPHPKSKIENGYPLHAPFAYFPYF [E18F]
1.92

Same thing, different variant: GVHPKSKIENGYPLHAPEAYFPYF [P2V]
2.41

Same thing, different variant: GPHPKSKIENGYPLHAPEAYFPHF [Y23H]
2.97

Same thing, different variant: GPHPKSKIENGYPLHAPEAYQPYF [F21Q]
2.85
